# System: M14 melanoma
# test: NCI-60 one-dose screen, 48 h (100 = growth as untreated, 0 = no growth, -100 = all killed)
# condition set: 10 µM unless noted
About 83,000 compounds went through this panel and 20% of them were active in at least one assay; those are over-represented in the sample as a whole.
Answer each item with its documented growth.
The response must be a number in % with no trailing unit.

# input # lookup: M14 melanoma growth, key = COc1cc2c(cc1-c1c(C)noc1C)ncc1nc(C3CCC(F)(F)CC3)n([C@@H](C)COC(F)F)c12
# output 41.4

# input # lookup: M14 melanoma growth, key = Cn1cccc1/C=C1/SC(=S)N(CCc2ccc(O)cc2)C1=O
# output 19.9

# input # lookup: M14 melanoma growth, key = CC1(C)CC[C@]2(CO)CC[C@]3(C)C(=CC[C@@H]4[C@@]5(C)CC[C@H](NCO)C(C)(C)[C@@H]5CC[C@]43C)[C@@H]2C1
# output -53

# input # lookup: M14 melanoma growth, key = Brc1ccc2c(c1)c(-c1nc(-c3c[nH]c4ncccc34)cs1)cn2CCCN1CCCCC1
# output -81.4

# input # lookup: M14 melanoma growth, key = COC(=O)[C@]12CC[C@@H](C(=O)/C=C/c3cccnc3)[C@@H]1[C@H]1CC[C@@H]3[C@@]4(C)C/C(=C/c5cccnc5)C(=O)C(C)(C)[C@@H]4CC[C@@]3(C)[C@]1(C)CC2
# output -80.3

# input # lookup: M14 melanoma growth, key = COc1ccc(/C=C/C(=O)c2ccc([N+](=O)[O-])cc2)cc1
# output 106

# input # lookup: M14 melanoma growth, key = Clc1ccc2[nH]cc(-c3nc(-c4c[nH]c5ncccc45)cs3)c2c1
# output 20.1

# input # lookup: M14 melanoma growth, key = O=C(/C=C/c1ccc2ccccc2c1)Nc1ncc(Cc2ccccc2)s1
# output 59.8

# input # lookup: M14 melanoma growth, key = CCN1CCN(C(=O)[C@]23CCC(C)(C)C[C@@H]2C2=CC[C@@H]4[C@@]5(C)C/C(=C/c6ccncc6)C(=O)C(C)(C)[C@@H]5CC[C@@]4(C)[C@]2(C)CC3)CC1
# output -76

# input # lookup: M14 melanoma growth, key = Cn1cc(-c2csc(-c3cn(CCN)c4ccc(F)cc34)n2)c2cccnc21
# output 81.4

# input # lookup: M14 melanoma growth, key = O=c1c(CNc2ccc(S(=O)(=O)Nc3nccs3)cc2)coc2ccccc12
# output 104

# input # lookup: M14 melanoma growth, key = CCC(c1ccc(OC)cc1)C(CC)c1ccc(O)c(CN2CCCCC2)c1 (centres undefined)
# output 44.3

# input # lookup: M14 melanoma growth, key = N#CCCCCCn1c2ccccc2c2c3[nH]c(=O)[nH]c(=O)c3c3c4ccccc4n(CCCCCC#N)c3c21
# output 66.8

# input # lookup: M14 melanoma growth, key = Cn1cc(-c2csc(-c3c[nH]c4ccc(F)cc34)n2)c2cccnc21
# output 13.7

# input # lookup: M14 melanoma growth, key = CCCNc1nc(N(C)O)nc(N(C)O)n1
# output 20.7

# input # lookup: M14 melanoma growth, key = COc1cc(-c2c(C#N)c(-c3cccs3)nc3c2c(-c2ccccc2)nn3-c2ccccc2)ccc1O
# output 89.3

# input # lookup: M14 melanoma growth, key = Cc1nn2c(-c3nc4cc(Cl)c(Cl)cc4[nH]3)c(-c3ccc(F)cc3)nc2s1
# output 30.1

# input # lookup: M14 melanoma growth, key = CCOC(=O)N1CCN(CCCCOc2ccc(C(C)(C)CC)cc2)CC1
# output 87.9

# input # lookup: M14 melanoma growth, key = COc1cccc(-c2nn(-c3ccccc3)cc2-c2ccnc(NCCCO)c2)c1
# output 12.8

Values from PubChem BioAssay (NCI)
